The entries that follow carry pKi values tested on UniProtKB A3EZJ3, drawn from several published reports.
pKi: −log10 of the molar value.
parameter measured: pKi

1) CCC[C@@H](NC(=O)[C@@H]1C[C@@H]2CN1C(=O)[C@H](C1CCCCC1)NC(=O)Cc1cccc(c1)OCCCO2)C(=O)C(=O)NCC(=O)N[C@H](C(=O)N(C)C)c1ccccc1 : 6.30
2) CCCC(NC(=O)[C@@H]1Cc2ccc3cc2CN1C(=O)[C@H](C1CCCCC1)NC(=O)CCCCCCO3)C(=O)C(=O)NCC(=O)OCc1ccccc1 (stereo partly drawn) : 5.77
3) CC(C)COC(=O)N[C@H](C(=O)N1C[C@H]2[C@@H]([C@H]1C(=O)NC(CC1CC1)C(=O)C(N)=O)C2(C)C)C(C)(C)C (stereo partly drawn) : 7.15

---

The entries that follow carry Ki values tested on NS3 (Hepatitis C virus, UniProt A3EZJ3), drawn from several published reports.
Assign classes using reported Ki values and the ranges low (below 80 nM), moderate (80 nM to below 300 nM), high (300 nM or more), please.

1) CCCC(NC(=O)[C@@H]1[C@@H]2[C@H](CN1C(=O)[C@@H](NC(=O)OC(C)(C)C)C1CCCCC1)C2(C)C)C(=O)C(=O)NCC(=O)N[C@H](C)C1CCCCC1 (stereo partly drawn) : moderate
2) CCCC(NC(=O)[C@@H]1C[C@@H]2CN1C(=O)[C@H](C1CCCCC1)NC(=O)Cc1cccc(c1)OCCCO2)C(=O)C(=O)NCC(=O)N[C@H](C(=O)N(C)C)c1ccccc1 (stereo partly drawn) : low
3) CC(C)(C)NC(=O)N[C@H](C(=O)N1C[C@H]2[C@@H]([C@H]1C(=O)NC(CC1CCC1)C(=O)C(N)=O)C2(C)C)C1CCCCC1 (stereo partly drawn) : low
4) CCCC(NC(=O)[C@H](CC1SCCS1)NC(=O)[C@@H](NC(=O)OCC(C)C)C1CCCCC1)C(=O)C(=O)NCC(=O)N[C@H](C(=O)O)c1ccccc1 (stereo partly drawn) : moderate
5) CC(C)(C)OC(=O)N[C@H](C(=O)N1C[C@H]2[C@@H]([C@H]1C(=O)NC(CC1CCC1)C(=O)C(N)=O)C2(C)C)C(C)(C)C (stereo partly drawn) : low
6) CCCC(NC(=O)[C@@H]1C[C@@H]2CN1C(=O)[C@H](C1CCCCC1)NC(=O)Cc1cccc(c1)OCCCO2)C(=O)C(=O)O (stereo partly drawn) : high
7) CCCC(NC(=O)[C@@H]1CC(OC(=O)N2CCc3ccccc3C2)CN1C(=O)[C@@H](NC(=O)[C@@H](NC(=O)CCCCC(=O)OC)C(C)C)C(C)C)C(=O)C(=O)NC1CC1 (stereo partly drawn) : moderate
8) CCCC(NC(=O)[C@@H]1C[C@@H](OC(=O)N2CCc3ccccc3C2)CN1C(=O)[C@H](NC(=O)[C@H](NC(=O)c1cnccn1)C(C)C)C(C)C)C(=O)C(=O)N(CC(=O)O)c1ccccc1 (stereo partly drawn) : high
9) CCCC(NC(=O)[C@@H]1C2CCCC2CN1C(=O)[C@@H](NC(=O)[C@@H](NC(=O)CCCCc1nnn[nH]1)C(C)C)C(C)C)C(=O)C(=O)NC(C)CC (stereo partly drawn) : moderate
10) C=CCNC(=O)C(=O)C(CCC)NC(=O)[C@@H]1CN(CC(=O)OCC)C(=O)N1C(=O)[C@@H](NC(=O)OC(C)(C)C)C(C)C (stereo partly drawn) : high
11) CCCC(NC(=O)[C@H](CC1SCc2ccccc2CS1)NC(=O)[C@@H](NC(=O)OCC(C)C)C1CCCCC1)C(=O)C(=O)NCC(=O)N[C@H](C(=O)O)c1ccccc1 (stereo partly drawn) : high
12) CCCC(NC(=O)[C@@H]1Cc2cccc(c2)OCCCCCC(=O)N[C@@H](C2CCCCC2)C(=O)N1)C(=O)C(=O)NCC(=O)N[C@H](C(=O)OC(C)(C)C)c1ccccc1 (stereo partly drawn) : high
13) CCCC(NC(=O)[C@@H]1C2CCCC2CN1C(=O)[C@@H](NC(=O)[C@@H](NC(=O)CCCCc1nnn[nH]1)C(C)C)C(C)C)C(=O)C(=O)N[C@@H](C)c1ccncc1 (stereo partly drawn) : moderate
14) CC(C)[C@H](NC(=O)[C@H](CCC(=O)O)NC(=O)[C@@H](N)CC(=O)O)C(=O)N[C@H](C(=O)N1CCC[C@H]1C(=O)N[C@@H](CCc1ccc(F)cc1)B1O[C@@H]2C[C@@H]3C[C@@H](C3(C)C)[C@]2(C)O1)C(C)C : low
15) CCCC(NC(=O)[C@@H]1Cc2ccc3cc2CN1C(=O)[C@H](C1CCCCC1)NC(=O)CCCCCCO3)C(=O)C(N)=O (stereo partly drawn) : high
16) CCCC(NC(=O)[C@@H]1C[C@@H]2CN1C(=O)[C@H](C1CCCCC1)NC(=O)Cc1cccc(c1)OCCC(C)(C)O2)C(=O)C(=O)NCC(=O)N[C@H](C(=O)OC(C)(C)C)c1ccccc1 (stereo partly drawn) : low
17) CCCC(NC(=O)[C@@H]1[C@@H]2[C@H](CN1C(=O)[C@@H](NC(=O)OC(C)(C)C)C1CCCCC1)C2(C)C)C(=O)C(=O)NCC(N)=O (stereo partly drawn) : high
18) CCCC(NC(=O)[C@@H]1C[C@@H](OC(=O)N2CCc3ccccc3C2)CN1C(=O)[C@H](NC(=O)[C@H](NC(=O)c1cnccn1)C(C)C)C(C)C)C(=O)C(=O)NCC#N (stereo partly drawn) : high
19) CCC[C@H](NC(=O)[C@@H]1C2CCCC2CN1C(=O)[C@@H](NC(=O)[C@@H](NC(=O)c1cnccn1)[C@@H](C)OC)C(C)(C)C)C(=O)C(=O)NC1CC1 (stereo partly drawn) : moderate
20) CCCC(NC(=O)[C@@H]1[C@H]2CC(C)(C)O[C@H]2CN1C(=O)[C@@H](NC(=O)OCC(C)C)C(C)(C)C)C(=O)C(=O)NCC(=O)N[C@H](C(=O)N(C)C)c1ccccc1 (stereo partly drawn) : low

---

The entries that follow carry Ki values tested on NS3 (Hepatitis C virus, UniProt A3EZJ3), drawn from several published reports.
parameter measured: Ki (µM)

1. C=CCNC(=O)C(=O)[C@H](CCC)NC(=O)[C@@H]1CNC(=O)N1C(=O)[C@@H](NC(=O)[C@@H](NC(=O)[C@H](CCC(=O)O)NC(=O)[C@H](CCC(=O)O)NC(C)=O)C(C)C)C(C)C : 46
2. CCCC(NC(=O)[C@@H]1[C@@H]2[C@H](CN1C(=O)[C@@H](NC(=O)OC(C)(C)C)C1CCCCC1)C2(C)C)C(=O)C(=O)NCC(=O)NCC1CC1 (stereo partly drawn) : 0.13
3. CCCC(NC(=O)[C@@H]1CC(OC(=O)N2CCc3ccccc3C2)CN1C(=O)[C@H](NC(=O)[C@H](NC(=O)c1cnccn1)C(C)C)C(C)C)C(=O)C(=O)N1CCC1 (single isomer, unassigned) : 0.97

---

The entries that follow carry pKi values tested on NS3 (Hepatitis C virus, UniProt A3EZJ3), drawn from several published reports.
pKi: −log10 of the molar value.
parameter measured: pKi

1. CCCC(NC(=O)[C@H](CC1OCCCO1)NC(=O)[C@@H](NC(=O)OCC(C)C)C1CCCCC1)C(=O)C(=O)NCC(=O)N[C@H](C(=O)O)c1ccccc1 (some centres not stated) : 6.37
2. CCCC(NC(=O)[C@@H]1C[C@@H]2CN1C(=O)[C@H](c1ccccc1)NC(=O)Cc1cccc(c1)OCCC(C)(C)O2)C(=O)C(=O)NCC(=O)N[C@H](C(=O)N(C)C)c1ccccc1 (some centres not stated) : 7.34
3. CCCC(NC(=O)[C@H](CC(C)C)NC(=O)[C@@H](NC(=O)OC(C)(C)C)C1CCCCC1)C(=O)C(=O)NCC(=O)NCc1ccccc1 (some centres not stated) : 4.09
4. CCCC(NC(=O)[C@@H]1Cc2ccc3cc2CN1C(=O)[C@H](C1CCCCC1)NC(=O)CCCCCCO3)C(=O)C(=O)NCC(=O)NCc1ccccc1 (some centres not stated) : 5.70
5. CC(C)(C)OC(=O)N[C@H](C(=O)N1C[C@H]2[C@@H](C1C(=O)NC(CC1CCO1)C(=O)C(N)=O)C2(C)C)C1CCCCC1 (some centres not stated) : 7.05
6. CCCC(NC(=O)[C@@H]1Cc2cccc(c2)OCCCCCC(=O)N[C@@H](C2CCCCC2)C(=O)N1)C(=O)C(=O)NCC(=O)N[C@H](C(=O)O)c1ccccc1 (some centres not stated) : 5.92
7. CCCC(NC(=O)[C@@H]1C[C@@H](OC(=O)N2CCc3ccccc3C2)CN1C(=O)[C@H](NC(=O)[C@H](NC(=O)c1cnccn1)C(C)C)C(C)C)C(=O)C(=O)NCc1ccco1 (some centres not stated) : 5.33
8. CCCC(NC(=O)[C@@H]1C2CCCC2CN1C(=O)[C@@H](NC(=O)[C@@H](NC(=O)c1cnccn1)C1CCCCC1)C(C)(C)C)C(=O)C(=O)NC[C@@H](C)CC (some centres not stated) : 6.60
9. CCCC(NC(=O)[C@@H]1C[C@@H](OC(=O)N2CCc3ccccc3C2)CN1C(=O)[C@H](NC(=O)[C@H](NC(=O)c1cnccn1)C(C)C)C(C)C)C(=O)C(=O)NCC(=N)N (some centres not stated) : 5.24
10. CCCC(NC(=O)[C@@H]1C[C@@H]2CN1C(=O)[C@H](C1CCCCC1)NC(=O)Cc1cccc(c1)OCCCO2)C(=O)C(=O)NCC(=O)N[C@H](C#N)c1ccccc1 (some centres not stated) : 6.51
11. CCCC(NC(=O)[C@@H]1C[C@@H]2CN1C(=O)[C@H](C(C)(C)C)NC(=O)c1cccc(c1)OCCCCO2)C(=O)C(=O)NCC(=O)N[C@H](C(=O)N(C)C)c1ccccc1 (some centres not stated) : 6.68
12. CCCC(NC(=O)[C@H](CC1SCCCS1)NC(=O)[C@@H](NC(=O)OCC(C)C)C1CCCCC1)C(=O)C(=O)NCC(=O)N[C@H](C(=O)O)c1ccccc1 (some centres not stated) : 6.60
13. CC(C)[C@H](NC(=O)[C@H](CCC(=O)O)NC(=O)[C@@H](N)CC(=O)O)C(=O)N[C@H](C(=O)N1CCC[C@H]1C(=O)N[C@@H](CCc1ccc(-c2ccccc2)cc1)B1O[C@@H]2C[C@@H]3C[C@@H](C3(C)C)[C@]2(C)O1)C(C)C : 8.15
14. CC(C)(C)NC(=O)N[C@H](C(=O)N1C[C@H]2[C@@H]([C@H]1C(=O)NC(CC1CC1)C(=O)C(N)=O)C2(C)C)C1CCCCC1 (some centres not stated) : 7.30
15. CCCCNC(=O)C(=O)C(CCC)NC(=O)[C@@H]1[C@@H]2[C@H](CN1C(=O)[C@@H](NC(=O)OC(C)(C)C)C1CCCCC1)C2(C)C (some centres not stated) : 5.72
16. CCC(C=O)NC(=O)[C@@H]1CC(OC(=O)c2ccc3ccccc3c2)CN1C(=O)[C@@H](NC(=O)[C@@H](NC(=O)CCCCC(=O)O)C(C)C)C(C)C (some centres not stated) : 6.96
17. CCC[C@H](NC(=O)[C@@H]1C2CCCC2CN1C(=O)[C@@H](NC(=O)[C@@H](NC(=O)CCCCc1nn[nH]n1)C(C)C)C(C)C)C(=O)C(=O)NC1CC1 (some centres not stated) : 6.77
18. COc1ccc2c(O[C@@H]3C[C@H]4C(=O)N[C@]5(C(=O)O)C[C@H]5/C=C\CCCCC[C@H](NC(=O)OC5CCCC5)C(=O)N4C3)cc(-c3csc(NC(C)C)n3)nc2c1 : 9.52
19. CCC[C@H](NC(=O)[C@@H]1C2CCCC2CN1C(=O)[C@@H](NC(=O)[C@@H](NC(=O)Cc1nn[nH]n1)C(C)C)C(C)(C)C)C(=O)C(=O)NC1CC1 (some centres not stated) : 6.09
